# experimental.system: rhNav1.7α + β1-β2-β3 (rhesus monkey)
# measurement.protocol: cell-based or functional assay
This section presents binders with their documented Qpatch IC50 [M], HEK cells values.
Report the figure in M without appending any unit label.

For orientation, consider the following solved cases.
F010301656 (VHH, also called F0103387G04(K33R, S50Y, S56D, N93R)-FLAG3-HIS6) VHH: EVQLVESGGGLAQPGGSLRLSCAASGPVFNINRMAWYRRAPGKQRELVAYVTPTGDISYTDSVKGRFTISRDGSKRWSLQMNSLTPEDTAVYYCRALLQPDSYSNTRTYWGQGTLVTVSS	6e-09
F010300659 (VHH, also called F0103275B05(S27P, I28V, S50Y, N53P, G55W, S56D, T57W, N93R, A94W)-FLAG3 + HIS6) VHH: EVQLVESGGGLVQPGGSLRLSCAASGPVFNINSMAWYRRAPGKQRELVAYSTPGWDWNYADSVKGRFTISRDNAKRVYLQMNSLTPEDTAVYYCRWLLQPSIYDISRTYWGQGTLVTVSS	1.8e-07
69AVB (Fc fusion, also called F010301656-5GS-Fc; F10301656* (ISVD with human IgG1 Fc); not shown: 5GS linker; human IgG1 Fc) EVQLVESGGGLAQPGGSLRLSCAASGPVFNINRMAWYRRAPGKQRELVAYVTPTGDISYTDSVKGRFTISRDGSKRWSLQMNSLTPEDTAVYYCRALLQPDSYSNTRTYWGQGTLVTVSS	8e-09

Query: Name the reported Qpatch IC50 [M], HEK cells value associated with the binder 66ASP (Fc fusion, also called F010300659-5GS-Fc; not shown: 5GS linker; Fc moiety) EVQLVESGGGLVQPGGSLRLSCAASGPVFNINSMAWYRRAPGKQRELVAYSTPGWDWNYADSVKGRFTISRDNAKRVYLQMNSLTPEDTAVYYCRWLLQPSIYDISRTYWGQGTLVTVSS
Result: 5.2e-08
